tested on: HL-60(TB) leukemia; experiment: NCI tumour cell line growth inhibition, 48 h

>  <compound>
COc1ncc(C#CC(=O)c2ccccc2)c(OC)n1

>  <TGI>
4.68 µM

$$$$
>  <compound>
CNC(=O)OCC1=C(COC(=O)NC)C(C)N(c2ccccc2)C1 (stereo not drawn)

>  <TGI>
47 µM

$$$$
>  <compound>
COc1cccc(NC(=O)c2ccc(NC3=C(Cl)C(=O)N(Cc4ccccc4)C3=O)cc2)c1

>  <TGI>
29 µM

$$$$
>  <compound>
OC1(C2(c3ccc(Cl)cc3)CCCC2)c2ccccc2C2=NCCN21 (stereo not drawn)

>  <TGI>
33.2 µM

$$$$
>  <compound>
COc1ccc(S(=O)(=O)Nc2ccc(-c3csc(N4C(=O)/C(=C/c5cccs5)N=C4c4ccccc4)n3)cc2)cc1Cl

>  <TGI>
87.4 µM

$$$$
>  <compound>
COC(=O)CCCNC(=O)C(=O)c1c(O)c(O)c(C(C)C)c2cc(C)c(-c3c(C)cc4c(C(C)C)c(O)c(O)c(C(=O)C(=O)NCCCC(=O)OC)c4c3O)c(O)c12

>  <TGI>
6.76 µM

$$$$
>  <compound>
CC(=O)OCc1nnn2c1CCC2

>  <TGI>
> 100 µM

$$$$
>  <compound>
Nc1nc(CC2(O)CCCCC2)cc(-c2ccccc2)n1

>  <TGI>
47.9 µM

$$$$
>  <compound>
CN(C(=O)c1ccc(Cl)cc1)C(=S)N1CCN(c2ccccc2)CC1

>  <TGI>
> 100 µM

$$$$
>  <compound>
CCCCC(N)CSSCC(N)CCCC (stereo not drawn)

>  <TGI>
40.1 µM

$$$$
>  <compound>
CCCc1n(Cc2ccc3ccccc3n2)cc[n+]1Cc1ccc2ccccc2c1

>  <TGI>
0.933 µM

$$$$
>  <compound>
C=C(C1=CC(=O)C(C)(C)O1)[C@@H]1CC=C([C@@H]2CC[C@H]3[C@@]2(C)CC[C@H]2C(C)(C)C(=O)[C@H](OC(=O)CC(C)(O)CC(=O)O)C[C@]32C)[C@H](O)O1 (stereo partly drawn)

>  <TGI>
38.4 µM

$$$$
>  <compound>
NC(Cc1ccc(O)cn1)C(=O)O (stereo not drawn)

>  <TGI>
> 100 µM

$$$$
>  <compound>
C/C(=N\NS(=O)(=O)c1c(C)cc(C)cc1C)c1ccc[n+]([O-])n1

>  <TGI>
25.1 µM

$$$$
>  <compound>
NS(=O)(=O)c1nnc(NC(=O)/C=C/C(=O)O)s1

>  <TGI>
> 100 µM

$$$$
>  <compound>
CC(C)(C)OC(=O)N1CCC(NC(=O)NC2CCN(C(=O)OC(C)(C)C)CC2)CC1

>  <TGI>
> 100 µM

$$$$
>  <compound>
O=C(COC(=O)c1cccc2c(=O)c3ccccc3[nH]c12)Nc1ccc(S(=O)(=O)Nc2ncccn2)cc1

>  <TGI>
71.3 µM

$$$$
>  <compound>
N/C(=N\N=C\c1ccc(O)c(O)c1)NO

>  <TGI>
> 100 µM

$$$$

Numbers sourced from PubChem BioAssay (NCI).
